Cited source: paper PMC5844530

- assay notes: Pharmacokinetics in whole blood, Sprague-Dawley rats
- recorded conditions: male, Sprague-Dawley, rat, in vivo, 700 mg/kg, Fosmetpantotenate Mean Conc., male Sprague-Dawley rats, fosmetpantotenate 700 mg/kg oral, blood, 0.5 hr, mean, BQL <1.26 nM

| compound | concentration at 0.5 hr |
| --- | --- |
| COC(=O)CCNC(=O)[C@H](O)C(C)(C)COP(=O)(N[C@@H](C)C(=O)OC)Oc1ccccc1 (mixture of isomers) [Fosmetpantotenate] | 222 nM |

---

- assay notes: Pharmacokinetics in whole blood, Sprague-Dawley rats
- recorded conditions: male, Sprague-Dawley, rat, in vivo, 100 mg/kg, Fosmetpantotenate Mean Conc., male Sprague-Dawley rats, fosmetpantotenate 100 mg/kg oral, blood, 4 hr, mean, BQL <1.26 nM

| compound | concentration at 4 h / nM |
| --- | --- |
| COC(=O)CCNC(=O)[C@H](O)C(C)(C)COP(=O)(N[C@@H](C)C(=O)OC)Oc1ccccc1 (mixture of isomers) [Fosmetpantotenate] | 2.04 |

---

- assay notes: Pharmacokinetics in whole blood, Sprague-Dawley rats
- recorded conditions: Sprague-Dawley rat; 300 mg/kg PO; metabolite AUCall/Parent AUCall x 100

| compound | % Parent AUCAll |
| --- | --- |
| COC(=O)CCNC(=O)[C@@H]1OP(=O)(N[C@@H](C)C(=O)OC)OCC1(C)C (stereo partly shown) | 39% |
| COC(=O)[C@H](C)NP(=O)(OCC(C)(C)[C@@H](O)C(=O)NCCC(=O)O)Oc1ccccc1 (stereo partly shown) | 2,820% |
| COC(=O)CCNC(=O)[C@@H]1OP(=O)(O)OCC1(C)C | 1,250% |
| CC1(C)COP(=O)(O)O[C@H]1C(=O)NCCC(=O)O | 4,130% |

---

- assay notes: Microdialysis (brain striatal dialysate) in C57Bl6 mice
- recorded conditions: male, C57Bl6, mouse, striatal dialysate (brain microdialysate), other: direct infusion into the striatum via cannula, 125 µg per animal

| molecule | concentration at 4 h [nM] |
| --- | --- |
| COC(=O)CCNC(=O)[C@H](O)C(C)(C)COP(=O)(N[C@@H](C)C(=O)OC)Oc1ccccc1 (mixture of isomers) [Fosmetpantotenate] | 2280 |

---

- assay notes: Microdialysis (striatal dialysate and blood) in cynomolgus monkeys
- Format: in vivo, cynomolgus monkey
- recorded conditions: cynomolgus, cynomolgus monkey, in vivo, po, 300 mg/kg
endpoint label: Cmax

| molecule | value measured |
| --- | --- |
| CC(C)(CO)[C@@H](O)C(=O)NCCC(=O)O [PA, pantothenate] | 4.27 µM |

---

- assay notes: in vivo
- recorded conditions: male, Sprague-Dawley, rat, po, 700 mg/kg
endpoint label: Cmax (µM)

| compound | value measured |
| --- | --- |
| CC(C)(CO)[C@@H](O)C(=O)NCCC(=O)O [PA, pantothenate] | 7.9 |

---

- assay notes: in vitro
- recorded conditions: pig, pH 7.4, Papp

| compound | Papp at 60 min |
| --- | --- |
| CC(C)(CO)[C@@H](O)C(=O)NCCC(=O)O [PA, pantothenate] | 5.6 ×10⁻⁶ cm/s |

---

- assay notes: Microdialysis (striatal dialysate and blood) in cynomolgus monkeys
- Type: in vivo, cynomolgus monkey
- recorded conditions: cynomolgus monkey, in vivo, po, 100 mg/kg, blood; fosmetpantotenate 100 mg/kg PO; analyte = label; read-out: Cmax
endpoint label: Cmax (nM)

| compound | unit abbreviation | value measured |
| --- | --- | --- |
| COC(=O)CCNC(=O)[C@H](O)C(C)(C)COP(=O)(N[C@@H](C)C(=O)OC)Oc1ccccc1 (mixture of isomers) [Fosmetpantotenate] | nM | 1650 |
